Tested on: RAW264.7
Assay: Cytotoxicity against mouse RAW264.7 cells assessed as effect on cell viability up to 80 uM after 24 hrs by MTT assay
Type: cell-based
Settings: raw264.7, 24 h

Smiles: COc1ccc2oc(CCc3ccc4c(c3)O[C@H]3[C@H](O)[C@@H]4c4c(oc(CCc5ccccc5)cc4=O)[C@@H]3O)cc(=O)c2c1
Activity: Non-Toxic
--
Smiles: O=c1cc(CCc2ccccc2)oc2c1[C@H]1c3c(ccc4oc(CCc5ccccc5)cc(=O)c34)O[C@H]([C@H]1O)[C@@H]2O
Activity: Non-Toxic
--
Smiles: O=c1cc(CCc2ccccc2)oc2c1[C@H]1c3ccc4c(=O)cc(CCc5ccccc5)oc4c3O[C@H]([C@H]1O)[C@@H]2O
Activity: Non-Toxic

Data origin: ChEMBL document CHEMBL4138239
